// data source = paper PMC2756588

Biological target: T1, Bzz1-2, P38822
T1 sequence (P38822 568-633, looked up): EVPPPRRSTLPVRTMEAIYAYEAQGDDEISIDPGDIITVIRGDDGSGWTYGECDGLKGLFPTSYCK
Experiment: SPOT array
Settings: median of control spots 4538
measurement-label: SPOT intensity

• TYNRTAFQIPGDQSI = 0
• AAHKTKPSIPPKKVE = 0
• QNTPPLPPKPKSPHL = 2
• NPLPKEPRLPKRKVA = 29
• KNRKNLPTIPIRLSG = 4
• VLRFLGFPLPIFEKG = 0
• MKRSRPSRSIPYTTP = 29
• RRSKSLPITPKSIFN = 0
• KNPRRQLQIPRQQPS = 2
